k2 Caspase-8 overview
biological target: Caspase-8 (Homo sapiens, UniProt Q14790); test: Caspase-8 progress curve inhibition assay; conditions: second-order rate constant; Ac-DEVD-AMC substrate; Pipes buffer pH 7.2
Sequence (Q14790 217-374 limits assumed): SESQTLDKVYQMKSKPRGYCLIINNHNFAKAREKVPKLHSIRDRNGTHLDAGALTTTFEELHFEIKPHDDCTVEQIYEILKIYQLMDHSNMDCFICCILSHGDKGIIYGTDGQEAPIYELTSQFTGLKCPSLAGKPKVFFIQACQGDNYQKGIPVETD
Sequence (Q14790 385-479 limits assumed): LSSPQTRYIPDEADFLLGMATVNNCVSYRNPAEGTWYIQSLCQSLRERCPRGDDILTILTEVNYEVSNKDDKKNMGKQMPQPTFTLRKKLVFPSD
MEASUREMENT KIND: k2 Caspase-8

INSERT INTO assay_data (compound, assayed_target, endpoint_value) VALUES
  ('CC[C@H](C)[C@H](NC(=O)OCc1ccccc1)C(=O)N[C@@H](CCC(=O)O)C(=O)N[C@H](C(=O)NN(CC(=O)O)C(=O)/C=C/C(=O)N(C)CCc1ccccc1)[C@@H](C)O (relative stereo)', 'Caspase-8 (Homo sapiens, UniProt Q14790)', '60,500 M^−1s^−1'),
  ('CC(C)C[C@H](NC(=O)OCc1ccccc1)C(=O)N[C@@H](CCC(=O)O)C(=O)N[C@H](C(=O)NN(CC(=O)O)C(=O)/C=C/C(=O)NCc1ccc(F)cc1)[C@@H](C)O (relative stereo)', 'Caspase-8 (Homo sapiens, UniProt Q14790)', '171,000 M^−1s^−1'),
  ('CC(C)C[C@H](NC(=O)OCc1ccccc1)C(=O)N[C@@H](CCC(=O)O)C(=O)N[C@H](C(=O)NN(CC(=O)O)C(=O)/C=C/C(=O)NCc1ccccc1)[C@@H](C)O (relative stereo)', 'Caspase-8 (Homo sapiens, UniProt Q14790)', '70,170 M^−1s^−1'),
  ('CC[C@H](C)[C@H](NC(=O)OCc1ccccc1)C(=O)N[C@@H](CCC(=O)O)C(=O)N[C@H](C(=O)NN(CC(=O)O)C(=O)/C=C/C(=O)N(Cc1ccccc1)Cc1ccccc1)[C@@H](C)O (relative stereo)', 'Caspase-8 (Homo sapiens, UniProt Q14790)', '39,500 M^−1s^−1'),
  ('CC(C)C[C@H](NC(=O)OCc1ccccc1)C(=O)N[C@@H](CCC(=O)O)C(=O)N[C@H](C(=O)NN(CC(=O)O)C(=O)/C=C/C(=O)N(C)CCc1ccccc1)[C@@H](C)O (relative stereo)', 'Caspase-8 (Homo sapiens, UniProt Q14790)', '65,300 M^−1s^−1'),
  ('CC(C)C[C@H](NC(=O)OCc1ccccc1)C(=O)N[C@@H](CCC(=O)O)C(=O)N[C@H](C(=O)NN(CC(=O)O)C(=O)/C=C/C(=O)N(C)Cc1cccc2ccccc12)[C@@H](C)O (relative stereo)', 'Caspase-8 (Homo sapiens, UniProt Q14790)', '179,000 M^−1s^−1'),
  ('CC[C@H](C)[C@H](NC(=O)OCc1ccccc1)C(=O)N[C@@H](CCC(=O)O)C(=O)N[C@H](C(=O)NN(CC(=O)O)C(=O)/C=C/C(=O)NCc1ccccc1)[C@@H](C)O (relative stereo)', 'Caspase-8 (Homo sapiens, UniProt Q14790)', '61,300 M^−1s^−1'),
  ('CC[C@H](C)[C@H](NC(=O)OCc1ccccc1)C(=O)N[C@@H](CCC(=O)O)C(=O)N[C@H](C(=O)NN(CC(=O)O)C(=O)/C=C/C(=O)Nc1ccccc1)[C@@H](C)O (relative stereo)', 'Caspase-8 (Homo sapiens, UniProt Q14790)', '245,000 M^−1s^−1'),
  ('CC(C)[C@H](NC(=O)[C@H](CCC(=O)O)NC(=O)[C@H](CC(=O)O)NC(=O)OCc1ccccc1)C(=O)NN(CC(=O)O)C(=O)/C=C/C(=O)NCc1ccccc1 (relative stereo)', 'Caspase-8 (Homo sapiens, UniProt Q14790)', '78,235 M^−1s^−1'),
  ('CC(C)[C@H](NC(=O)[C@H](CCC(=O)O)NC(=O)[C@H](CC(=O)O)NC(=O)OCc1ccccc1)C(=O)NN(CC(=O)O)C(=O)/C=C/C(=O)N(C)CCc1ccccc1 (relative stereo)', 'Caspase-8 (Homo sapiens, UniProt Q14790)', '31,900 M^−1s^−1');

---

target: Caspase-7 (Homo sapiens); experiment: Caspase-7 progress curve inhibition assay; conditions: second-order rate constant; Ac-DEVD-AMC substrate; Pipes buffer pH 7.2
Sequence (P55210 24-198 limits assumed): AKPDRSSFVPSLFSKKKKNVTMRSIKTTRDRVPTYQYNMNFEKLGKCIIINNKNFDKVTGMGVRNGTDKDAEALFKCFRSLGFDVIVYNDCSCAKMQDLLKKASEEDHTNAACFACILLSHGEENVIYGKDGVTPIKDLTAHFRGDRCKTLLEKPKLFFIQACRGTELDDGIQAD
Sequence (P55210 207-303 limits assumed): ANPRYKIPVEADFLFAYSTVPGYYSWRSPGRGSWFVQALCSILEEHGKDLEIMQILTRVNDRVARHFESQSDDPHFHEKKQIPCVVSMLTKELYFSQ
MEASUREMENT KIND: k2 Caspase-7

INSERT INTO assay_data (molecule, endpoint_value) VALUES
  ('CCOC(=O)/C=C/C(=O)N(CC(=O)O)NC(=O)[C@@H](NC(=O)[C@H](CCC(=O)O)NC(=O)OCc1ccccc1)C(C)C (relative stereo)', '52,400 M^−1s^−1'),
  ('CC(C)C[C@H](NC(=O)OCc1ccccc1)C(=O)N[C@@H](CCC(=O)O)C(=O)N[C@H](C(=O)NN(CC(=O)O)C(=O)/C=C/C(=O)N(C)CCc1ccccc1)[C@@H](C)O (relative stereo)', '290 M⁻¹ s⁻¹'),
  ('CC(C)[C@H](NC(=O)OCc1ccccc1)C(=O)NN(CC(=O)O)C(=O)/C=C/C(=O)NCc1ccccc1 (stereo in doubt)', '60 M⁻¹ s⁻¹'),
  ('CC[C@H](C)[C@H](NC(=O)OCc1ccccc1)C(=O)N[C@@H](CCC(=O)O)C(=O)N[C@H](C(=O)NN(CC(=O)O)C(=O)/C=C/C(=O)OCc1ccccc1)[C@@H](C)O (relative stereo)', '660 M⁻¹ s⁻¹'),
  ('CC[C@H](C)[C@H](NC(=O)OCc1ccccc1)C(=O)N[C@@H](CCC(=O)O)C(=O)N[C@H](C(=O)NN(CC(=O)O)C(=O)/C=C/C(=O)N(C)Cc1ccccc1)[C@@H](C)O (relative stereo)', '390 M⁻¹ s⁻¹'),
  ('CCOC(=O)/C=C/C(=O)N(CC(=O)O)NC(=O)[C@@H](NC(=O)[C@H](CCC(=O)O)NC(=O)[C@@H](NC(=O)OCc1ccccc1)C(C)C)C(C)C (relative stereo)', '3,650 M^−1s^−1'),
  ('CC(C)C[C@H](NC(=O)OCc1ccccc1)C(=O)N[C@@H](CCC(=O)O)C(=O)N[C@H](C(=O)NN(CC(=O)O)C(=O)/C=C/C(=O)N(C)Cc1ccccc1)[C@@H](C)O (relative stereo)', '520 M⁻¹ s⁻¹'),
  ('CC(C)[C@H](NC(=O)[C@H](CCC(=O)O)NC(=O)[C@H](CC(=O)O)NC(=O)OCc1ccccc1)C(=O)NN(CC(=O)O)C(=O)/C=C/C(=O)OCc1ccccc1 (relative stereo)', '114,000 M^−1s^−1'),
  ('CCOC(=O)/C=C\C(=O)N(CC(=O)O)NC(=O)[C@@H](NC(=O)[C@H](CCC(=O)O)NC(=O)[C@H](CC(=O)O)NC(=O)OCc1ccccc1)C(C)C (relative stereo) [Cbz-Asp-Glu-Val-AAsp-CH═CH—COOEt (cis)]', '139,000 M^−1s^−1'),
  ('CC(C)[C@H](NC(=O)[C@H](CCC(=O)O)NC(=O)[C@H](CC(=O)O)NC(=O)OCc1ccccc1)C(=O)NN(CC(=O)O)C(=O)/C=C/C(=O)NCCc1ccccc1 (relative stereo)', '267,000 M^−1s^−1'),
  ('CC(C)[C@H](NC(=O)[C@H](CCC(=O)O)NC(=O)[C@H](CC(=O)O)NC(=O)OCc1ccccc1)C(=O)NN(CC(=O)O)C(=O)/C=C/C(=O)N(Cc1ccccc1)Cc1ccccc1 (relative stereo)', '359,000 M^−1s^−1'),
  ('CC(C)[C@H](NC(=O)[C@H](CCC(=O)O)NC(=O)[C@H](CC(=O)O)NC(=O)OCc1ccccc1)C(=O)NN(CC(=O)O)C(=O)/C=C/C(=O)NCc1ccccc1 (relative stereo)', '249,000 M^−1s^−1'),
  ('CC(C)C[C@H](NC(=O)OCc1ccccc1)C(=O)N[C@@H](CCC(=O)O)C(=O)N[C@H](C(=O)NN(CC(=O)O)C(=O)/C=C/C(=O)OCc1ccccc1)[C@@H](C)O (relative stereo)', '1,570 M^−1s^−1'),
  ('CC(C)C[C@H](NC(=O)OCc1ccccc1)C(=O)N[C@@H](CCC(=O)O)C(=O)N[C@H](C(=O)NN(CC(=O)O)C(=O)/C=C/C(=O)N(C)Cc1cccc2ccccc12)[C@@H](C)O (relative stereo)', '1,100 M^−1s^−1'),
  ('CC[C@H](C)[C@H](NC(=O)OCc1ccccc1)C(=O)N[C@@H](CCC(=O)O)C(=O)N[C@H](C(=O)NN(CC(=O)O)C(=O)/C=C/C(=O)NCc1ccccc1)[C@@H](C)O (relative stereo)', '100 M⁻¹ s⁻¹'),
  ('CC(C)[C@H](NC(=O)[C@H](CCC(=O)O)NC(=O)[C@H](CC(=O)O)NC(=O)OCc1ccccc1)C(=O)NN(CC(=O)O)C(=O)/C=C/C(=O)NCc1ccc(F)cc1 (relative stereo)', '329,000 M^−1s^−1'),
  ('C/C=C/C=C/C(=O)N(CC(=O)O)NC(=O)[C@@H](NC(=O)OCc1ccccc1)C(C)C (stereo in doubt)', '56 M⁻¹ s⁻¹');

---

Molecular target: UniProtKB Q92851
Sequence (Q92851 220-415 limits assumed): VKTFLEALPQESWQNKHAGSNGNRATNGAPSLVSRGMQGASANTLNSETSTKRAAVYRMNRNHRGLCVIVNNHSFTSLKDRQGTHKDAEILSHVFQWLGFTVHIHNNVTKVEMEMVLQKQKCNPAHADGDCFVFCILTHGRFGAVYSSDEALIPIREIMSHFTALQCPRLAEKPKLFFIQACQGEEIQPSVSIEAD
Sequence (Q92851 416-521 limits assumed): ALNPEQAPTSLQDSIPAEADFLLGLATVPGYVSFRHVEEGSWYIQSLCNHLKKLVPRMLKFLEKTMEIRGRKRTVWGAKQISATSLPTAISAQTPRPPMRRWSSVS
Assay: Caspase-10 progress curve inhibition assay
Settings: second-order rate constant; Ac-DEVD-AMC substrate; Hepes/PEG buffer pH 7.0
MEASUREMENT KIND: k2 Caspase-10

INSERT INTO results (molecule, assayed_target, endpoint_value) VALUES
  ('CC(C)C[C@H](NC(=O)OCc1ccccc1)C(=O)N[C@@H](CCC(=O)O)C(=O)N[C@H](C(=O)NN(CC(=O)O)C(=O)/C=C/C(=O)NCCc1ccccc1)[C@@H](C)O (relative stereo) [Cbz-Leu-Glu-Thr-AAsp-CH═CH—CONHCH2CH2Ph]', 'UniProtKB Q92851', '17,900 M^−1s^−1'),
  ('CCOC(=O)/C=C\C(=O)N(CC(=O)O)NC(=O)[C@@H](NC(=O)[C@H](CCC(=O)O)NC(=O)[C@H](CC(=O)O)NC(=O)OCc1ccccc1)C(C)C (relative stereo) [Cbz-Asp-Glu-Val-AAsp-CH═CH—COOEt (cis)]', 'UniProtKB Q92851', '13,500 M^−1s^−1'),
  ('CC(C)C[C@H](NC(=O)OCc1ccccc1)C(=O)N[C@@H](CCC(=O)O)C(=O)N[C@H](C(=O)NN(CC(=O)O)C(=O)/C=C/C(=O)OCc1ccccc1)[C@@H](C)O (relative stereo) [Cbz-Leu-Glu-Thr-AAsp-CH═CH—COOCH2Ph]', 'UniProtKB Q92851', '18,900 M^−1s^−1'),
  ('CCOC(=O)/C=C/C(=O)N(CC(=O)O)NC(=O)[C@@H](NC(=O)[C@H](CCC(=O)O)NC(=O)[C@@H](NC(=O)OCc1ccccc1)[C@@H](C)CC)[C@@H](C)O (relative stereo) [Cbz-Ile-Glu-Thr-AAsp-CH═CH—COOEt]', 'UniProtKB Q92851', '6,900 M^−1s^−1'),
  ('CC(C)C[C@H](NC(=O)OCc1ccccc1)C(=O)N[C@@H](CCC(=O)O)C(=O)N[C@H](C(=O)NN(CC(=O)O)C(=O)/C=C/C(=O)NCc1ccccc1)[C@@H](C)O (relative stereo) [Cbz-Leu-Glu-Thr-AAsp-CH═CH—CONHCH2Ph]', 'UniProtKB Q92851', '14,400 M^−1s^−1'),
  ('CC(C)[C@H](NC(=O)[C@H](CCC(=O)O)NC(=O)[C@H](CC(=O)O)NC(=O)OCc1ccccc1)C(=O)NN(CC(=O)O)C(=O)/C=C/C(=O)c1ccccc1 (relative stereo) [Cbz-Asp-Glu-Val-AAsp-CH═CH—COPh]', 'UniProtKB Q92851', '930 M⁻¹ s⁻¹'),
  ('CC(C)C[C@H](NC(=O)OCc1ccccc1)C(=O)N[C@@H](CCC(=O)O)C(=O)N[C@H](C(=O)NN(CC(=O)O)C(=O)/C=C/C(=O)NCc1ccc(F)cc1)[C@@H](C)O (relative stereo)', 'UniProtKB Q92851', '9,380 M^−1s^−1'),
  ('CC[C@H](C)[C@H](NC(=O)OCc1ccccc1)C(=O)N[C@@H](CCC(=O)O)C(=O)N[C@H](C(=O)NN(CC(=O)O)C(=O)/C=C/C(=O)OCc1ccccc1)[C@@H](C)O (relative stereo) [Cbz-Ile-Glu-Thr-AAsp-CH═CH—COOCH2Ph]', 'UniProtKB Q92851', '15,200 M^−1s^−1'),
  ('CCOC(=O)/C=C/C(=O)N(CC(=O)O)NC(=O)[C@@H](NC(=O)[C@H](CCC(=O)O)NC(=O)OCc1ccccc1)C(C)C (relative stereo) [Cbz-Glu-Val-AAsp-CH═CH—COOEt]', 'UniProtKB Q92851', '8,940 M^−1s^−1');
